Protocol Summary: Drug metabolism in mouse liver microsomes after 20 mins
Type: ADME, Microsome
Test Context: read-out: Drug metabolism
metabolised at 20 min of 40% or higher: Yes. Under 40%: No.

Inquiry: metabolised at 20 min >= 40% for CC1(C)CCC(N=C2NS(=O)(=O)[C@@H]3CCCC[C@@H]3O2)CC1 (racemic) ?
Reply text: Yes

Inquiry: metabolised at 20 min >= 40% for O=S1(=O)NC(=NC23CC4CC(CC(C4)C2)C3)O[C@H]2CCCC[C@H]21 ?
Reply text: Yes

Inquiry: metabolised at 20 min >= 40% for O=S1(=O)NC(=NC23CCC(CC2)CC3)O[C@H]2CCCC[C@H]21 ?
Reply text: Yes

Inquiry: metabolised at 20 min >= 40% for O=S1(=O)N=C(NC23CCC(O)(CC2)CC3)O[C@H]2CCCC[C@H]21 (mixture of isomers) ?
Reply text: No

Inquiry: metabolised at 20 min >= 40% for CC1(C)OC(NC2CCCCC2)=NS(=O)(=O)C1(C)C ?
Reply text: No

Inquiry: metabolised at 20 min >= 40% for O=S1(=O)N=C(NC2CCCCCC2)O[C@H]2CCCC[C@H]21 (racemic) ?
Reply text: Yes

Inquiry: metabolised at 20 min >= 40% for CC1(C)OC(N[C@@H](CCO)c2ccccc2)=NS(=O)(=O)C1(C)C ?
Reply text: No
